- System: phospho-serine 2056 DNA-PK in HCT116 cells
- procedure-details: DNA-PK phosphorylation at serine 2056 (cellular), ELISA in bleomycin-treated HCT116 cells
- Type: cell-based
- condition-summary: Homo sapiens, HCT-116, phospho-serine 2056 DNA-PK, bleomycin-treated HCT116 cells; class symbols A-D; read-out: IC50 pDNA-PK
pIC50: −log10 of the molar value.
measured-endpoint: pIC50

// known answers, use as guide
N#CCOc1ccc(C(O)c2cc(-c3ncnc4cc(N5CCOCC5)ccc34)c(F)cc2Cl)nn1 (stereo not shown) [Example 119] = > 6.30
OC(c1cc(F)c(F)c(-c2ncnc3cc(N4CCOCC4)ccc23)c1)c1nccs1 (stereo not shown) [Example 171] = 5.30 to 6.30
OC(c1cccc(-c2ncnc3cc(N4CCOCC4)ccc23)c1)(c1nccs1)C(F)(F)F (stereo not shown) [Example 159] = 4.52 to 5.00
COc1ccc(C(O)c2cc(-c3ncnc4cc(N5CCOCC5)ccc34)c(F)cc2F)cc1 (stereo not shown) [Example 120] = 5.30 to 6.30
COCCOc1ccc(C(O)c2cc(-c3ncnc4cc(N5CCOCC5)ccc34)c(F)cc2Cl)nn1 (stereo not shown) [Example 112] = 5.30 to 6.30
Cn1nc(C(O)c2ccc(F)c(-c3ncnc4cc(N5CCOCC5)ccc34)c2F)ccc1=O (stereo not shown) [Example 220] = 5.00 to 5.30
OC(c1ccc(F)c(-c2ncnc3cc(C4=CCOCC4)ccc23)c1)c1nccs1 (stereo not shown) [Example 139] = 4.52 to 5.00
CC(O)(c1cncc(-c2ncnc3cc(N4CCOCC4)ccc23)c1)c1nccs1 (stereo not shown) [Example 152] = 4.52 to 5.00

Request: Name the recorded pIC50 of the molecule listed here: COc1ccc(C(O)c2cc(-c3ncnc4cc(N5CCOCC5)ccc34)c(F)cc2F)cn1 (stereo not shown) [Example 221]
Response: 5.30 to 6.30

Request: Name the recorded pIC50 of the molecule listed here: OC(c1ccc(F)c(-c2ncnc3cc(N4CCOCC4)ncc23)c1)c1nccs1 (stereo not shown) [Example 140]
Response: 4.52 to 5.00

Request: Name the recorded pIC50 of the molecule listed here: Cn1cc(C(O)c2ccc(F)c(-c3ncnc4cc(N5CCOCC5)ccc34)c2)cn1 (stereo not shown) [Example 191]
Response: 4.52 to 5.00

Request: Name the recorded pIC50 of the molecule listed here: OCCOc1nccnc1C(O)c1ccc(F)c(-c2ncnc3cc(N4CCOCC4)ccc23)c1 (stereo not shown) [Example 105]
Response: 4.52 to 5.00

Request: Name the recorded pIC50 of the molecule listed here: COC(=O)COc1ccc(C(O)c2cc(-c3ncnc4cc(N5CCOCC5)ccc34)c(F)cc2Cl)nn1 (stereo not shown) [Example 114]
Response: 4.52 to 5.00

Request: Name the recorded pIC50 of the molecule listed here: NC(=O)COc1ccc(C(O)c2cc(-c3ncnc4cc(N5CCOCC5)ccc34)c(F)cc2Cl)nn1 (stereo not shown) [Example 111]
Response: 5.00 to 5.30

Request: Name the recorded pIC50 of the molecule listed here: CCOc1ccc(C(O)c2ccc(F)c(-c3ncnc4cc(N5CCOCC5)ccc34)c2)nn1 (stereo not shown) [Example 134]
Response: 5.30 to 6.30

Request: Name the recorded pIC50 of the molecule listed here: OC(c1ccc2ncnn2c1)c1cc(-c2ncnc3cc(N4CCOCC4)ccc23)c(F)cc1F (stereo not shown) [Example 222]
Response: 5.30 to 6.30

---

Measured IC50 accompanies every entry in the list below.
- System: phospho-serine 2056 DNA-PK in HCT116 cells
- procedure-details: DNA-PK phosphorylation at serine 2056 (cellular), ELISA in bleomycin-treated HCT116 cells
- Assay type: cell-based
- condition-summary: Homo sapiens, HCT-116, phospho-serine 2056 DNA-PK, bleomycin-treated HCT116 cells; class symbols A-D; read-out: IC50 pDNA-PK

// known answers, use as guide
CC(O)(c1ccc(F)c(-c2ncnc3cc(N4CCOCC4)ccc23)c1)c1nccs1 (centres unmarked) [Example 163] = 10 to 30 µM
Cc1nc(C(O)c2cc(-c3ncnc4cc(N5CCOCC5)ccc34)cnc2F)sc1C (centres unmarked) [Example 205] = 10 to 30 µM
OC(c1ccc(F)c(-c2ncnc3cc(N4CCOCC4)ccc23)c1)c1ccc(OC(F)F)nn1 (centres unmarked) [Example 121] = 0.5 to 5 µM
OCc1csc([C@@H](O)c2cc(-c3ncnc4cc(N5CCOCC5)ccc34)c(F)cc2Cl)n1 [Example 185] = 0.5 to 5 µM
OCc1csc([C@H](O)c2cc(-c3ncnc4cc(N5CCOCC5)ccc34)c(F)cc2Cl)n1 [Example 186] = 5 to 10 µM

Request: Name the recorded IC50 of the compound listed here: OC(c1cc(F)cc(-c2ncnc3cc(N4CCOCC4)ccc23)c1)c1nccs1 (centres unmarked) [Example 169]
Response: 10 to 30 µM

Request: Name the recorded IC50 of the compound listed here: CSc1ccc(C(O)c2cc(-c3ncnc4cc(N5CCOCC5)ccc34)c(F)cc2Cl)nn1 (centres unmarked) [Example 108]
Response: < 0.5 µM

Request: Name the recorded IC50 of the compound listed here: O=C(O)COc1ccc(C(O)c2cc(-c3ncnc4cc(N5CCOCC5)ccc34)c(F)cc2Cl)nn1 (centres unmarked) [Example 113]
Response: 10 to 30 µM

---

- Test system: phospho-serine 2056 DNA-PK in HCT116 cells
- procedure-details: DNA-PK phosphorylation at serine 2056 (cellular), ELISA in bleomycin-treated HCT116 cells
- Format: cell-based
- condition-summary: Homo sapiens, HCT-116, 6 h, cellular; HCT116 cells, 10 μM bleomycin, six hours; read-out: IC50 pDNA-PK
Measured IC50 accompanies every entry in the list below.

Request: Name the recorded IC50 of the compound listed here: Cc1nccnc1[C@H](O)c1ccc(F)c(-c2ncnc3cc(N4CCOCC4)ccc23)c1
Response: < 500 nM

Request: Name the recorded IC50 of the compound listed here: OC(c1cc(-c2ncnc3cc(N4CCOCC4)ccc23)ccc1Cl)c1ncnc2ccsc12 (stereo not drawn)
Response: < 500 nM

Request: Name the recorded IC50 of the compound listed here: OC(c1ccc(F)c(-c2ncnc3cc(N4CCOCC4)ccc23)c1)c1ncccc1OC(F)F (stereo not drawn)
Response: < 500 nM

---

Measured pIC50 accompanies every entry in the list below.
- System: phospho-serine 2056 DNA-PK in HCT116 cells
- procedure-details: DNA-PK phosphorylation at serine 2056 (cellular), ELISA in bleomycin-treated HCT116 cells
- Format: cell-based
- condition-summary: Homo sapiens, HCT-116, 6 h, cellular; HCT116 cells, 10 μM bleomycin, six hours; read-out: IC50 pDNA-PK
- Procedure: HCT116 cells were cultivated at 37° C. and 10% CO2 in MEM alpha medium with 10% of foetal calf serum and 2 mM glutamine. The cells were detached from the base of the culture vessels with the aid of trypsin/EDTA, centrifuged off in centrifuge tubes, taken up in fresh medium, and the cell density was determined. […] The development of the enzymatic reaction was carried out with the aid of a chemiluminescent reagent, the chemiluminescence was measured with the aid of a Mithras LB940. […]
pIC50: −log10 of the molar value.

CCOc1cnnc(C(O)c2ccc(F)c(-c3ncnc4cc(N5CCOCC5)ccc34)c2)c1 (stereo not drawn) = 5.00 to 5.30
OC(c1cccnn1)c1cc(-c2ncnc3cc(N4CCOCC4)ccc23)c(F)cc1F (stereo not drawn) = 5.30 to 6.30
COc1ccc(C(OC)c2ccc(F)c(-c3ncnc4cc(N5CCOCC5)ccc34)c2)nn1 (stereo not drawn) = 5.30 to 6.30
OC(c1cc(-c2ncnc3cc(N4CCOCC4)ccc23)c(F)cc1Cl)c1nccnc1Cl (stereo not drawn) = > 6.30
OC(c1ccc(Cl)nn1)c1cc(-c2ncnc3cc(N4CCOCC4)ccc23)c(F)cc1F (stereo not drawn) = 5.30 to 6.30

Request: Name the recorded pIC50 of the molecule listed here: OC(c1ccn2nccc2n1)c1cc(-c2ncnc3cc(N4CCOCC4)ccc23)c(F)cc1Cl (stereo not drawn)
Response: > 6.30

Request: Name the recorded pIC50 of the molecule listed here: COc1cnc(C(O)c2ccc(OC)c(-c3ncnc4cc(N5CCOCC5)ccc34)c2)cn1 (stereo not drawn)
Response: 4.52 to 5.00

Request: Name the recorded pIC50 of the molecule listed here: O=c1ccc(C(O)c2cc(-c3ncnc4cc(N5CCOCC5)ccc34)c(F)cc2Cl)nn1C1CC1 (stereo not drawn)
Response: 5.30 to 6.30

Request: Name the recorded pIC50 of the molecule listed here: O[C@@H](c1ccc(F)c(-c2ncnc3cc(N4CCOCC4)ccc23)c1)c1nccnc1Cl
Response: 5.00 to 5.30

---

- Test system: phospho-serine 2056 DNA-PK in HCT116 cells
- procedure-details: DNA-PK phosphorylation at serine 2056 (cellular), ELISA in bleomycin-treated HCT116 cells
- Type: cell-based
- condition-summary: Homo sapiens, HCT-116, phospho-serine 2056 DNA-PK, bleomycin-treated HCT116 cells; class symbols A-D; read-out: IC50 pDNA-PK
pIC50: −log10 of the molar value.
Measured pIC50 accompanies every entry in the list below.

// known answers, use as guide
CNCc1csc(C(O)c2cc(-c3ncnc4cc(N5CCOCC5)ccc34)c(F)cc2Cl)n1 (stereo not shown) [Example 143] = 5.00 to 5.30
CC(O)c1csc(C(O)c2cc(-c3ncnc4cc(N5CCOCC5)ccc34)c(F)cc2Cl)n1 (stereo not shown) [Example 201] = 5.30 to 6.30
COc1ccc(C(O)c2cc(-c3ncnc4cc(N5CCOCC5)ccc34)c(F)cc2F)c(F)c1 (stereo not shown) [Example 124] = 5.30 to 6.30
OC(c1cccc(-c2ncnc3cc(N4CCOCC4)sc23)c1)c1nccs1 (stereo not shown) [Example 182] = 5.00 to 5.30
COc1ccc(C(O)(c2cc(-c3ncnc4cc(N5CCOCC5)ccc34)c(F)cc2Cl)C(F)F)nn1 (stereo not shown) [Example 123] = 4.52 to 5.00
OC(c1cn2ccnc2cn1)c1cc(-c2ncnc3cc(N4CCOCC4)ccc23)c(F)cc1F (stereo not shown) [Example 223] = 5.30 to 6.30

Request: Name the recorded pIC50 of the compound listed here: Cc1nc(C(O)c2cnc(F)c(-c3ncnc4cc(N5CCOCC5)ncc34)c2)sc1C (stereo not shown) [Example 196]
Response: 4.52 to 5.00

Request: Name the recorded pIC50 of the compound listed here: N#CCCOc1ccc(C(O)c2cc(-c3ncnc4cc(N5CCOCC5)ccc34)c(F)cc2Cl)nn1 (stereo not shown) [Example 107]
Response: 5.30 to 6.30

Request: Name the recorded pIC50 of the compound listed here: Cc1nc(C(O)c2ccc(F)c(-c3ncnc4cc(N5CCOCC5)ccc34)c2)sc1CO (stereo not shown) [Example 200]
Response: 5.00 to 5.30

Request: Name the recorded pIC50 of the compound listed here: CCn1cc(C(O)c2cc(-c3ncnc4cc(N5CCOCC5)ccc34)c(F)cc2Cl)cn1 (stereo not shown) [Example 202]
Response: 5.30 to 6.30
